z-score listing for selected sequences.
protocol: Components of the Cytosolic LPS Sensing Pathway: Gene Identification via Genome-wide siRNA Screen;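 also: robust z of the log signal after scaling to non-targeting control siRNA wells of the plate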
condition.notes: RAW264.7 macrophages, IL-1a HTRF, actives lie on both sides, screened at 100 nM (by protocol), cells primed 5 h with Pam3CSK4 first
Protocol: Non-canonical inflammasome activation by cytosolic LPS is a critical component of the host response to Gram-negative bacterial infection, however we lack a comprehensive understanding of the cellular processes that control this pathway. […] Lipofectamine RNAiMAX Transfection Reagent ([…]; Invitrogen) was added in […] serum-free, antibiotic-free media to plate wells using a Thermo Scientific Matrix WellMate and Microplate Stacker. […] The plates were read on an EnVision plate reader (PerkinElmer). […]
Out of some 53,000 sequences screened, about 3,700 (7%) were called active. Many of the other results were omitted from the sample, so actives are more common in it than they were.

{"residue.sequence": "CCCACUAAGGAACAAAUUGTT against Tex24", "z-score": "0.297 (inactive)"}
{"residue.sequence": "GCACGGCCCUACUUUAUAGTT against Trim33", "z-score": "-1.43 (inactive)"}
{"residue.sequence": "GGUUCAAAUGUUCUCCAUATT against 9530080O11Rik", "z-score": "2.55 (active)"}
{"residue.sequence": "GGAAGAUCCAUUUAAUGUATT against Eps15", "z-score": "1.14 (inactive)"}
{"residue.sequence": "CCAGACUCCUCUUAGAAGGTT against Ankrd34c", "z-score": "0.73 (inactive)"}
{"residue.sequence": "CCGAUAAUGCUUUCUUUGGTT against Ppp1cc", "z-score": "0.547 (inactive)"}
{"residue.sequence": "GCCCGUGUGUAAGUGCAAATT against Wfikkn2", "z-score": "2.25 (active)"}
{"residue.sequence": "GCUUCAAUGAGGAGUAUCUTT against Smpdl3b", "z-score": "-0.617 (inactive)"}
{"residue.sequence": "GGGCAAAUUAUGCUGUCAUTT against Tomm20", "z-score": "-1.7 (inactive)"}
{"residue.sequence": "GGACUACCAGUUUUACAUCTT against Ssr1", "z-score": "1.25 (inactive)"}
{"residue.sequence": "GGUUUGAAUCAAAUUGUACTT against Hyou1", "z-score": "-1.12 (inactive)"}
{"residue.sequence": "GCGAUACAACUCUUAUGACTT against Dennd5b", "z-score": "-0.521 (inactive)"}
{"residue.sequence": "GCAACUAGCGUGUGUUCCUTT against Arpc1a", "z-score": "2.4 (active)"}
{"residue.sequence": "GCCCUUCGUGAUGAAGAAUTT against B4galt3", "z-score": "0.829 (inactive)"}
{"residue.sequence": "CCUGAUUGUCACUCCUUUUTT against Pde4b", "z-score": "0.753 (inactive)"}
{"residue.sequence": "GCAUUGUGCUUUUGACAACTT against Abca15", "z-score": "-0.173 (inactive)"}
{"residue.sequence": "GGCAACCAUUAAAUGUUUATT against Trim59", "z-score": "-0.54 (inactive)"}
{"residue.sequence": "CCAGUUUCAGAUCAGAUUATT against Zfp747", "z-score": "0.729 (inactive)"}
{"residue.sequence": "CCGGAGCACCAUUAAGGUUTT against Nudt11", "z-score": "4.75 (active)"}
{"residue.sequence": "GCUUAAACCGCCUAUGUUCTT against Spcs1", "z-score": "0.782 (inactive)"}
{"residue.sequence": "GCUGAACGUGAGAUUGUGCTT against Acta1", "z-score": "1.33 (inactive)"}
{"residue.sequence": "AACAUGUCCAACCUAGGCATT against Lefty1", "z-score": "-1.44 (inactive)"}
{"residue.sequence": "GGGACAGUUAGUCAGUAAGTT against Pus7l", "z-score": "0.196 (inactive)"}
{"residue.sequence": "GGAAGAGGUUAGCAAGCAUTT against Iws1", "z-score": "2.27 (active)"}
{"residue.sequence": "GGAGAUUGGGAUCAAUUAGTT against Sall3", "z-score": "0.576 (inactive)"}
{"residue.sequence": "GGUGGUGGAGAAGAUAGGATT against Pax8", "z-score": "-1.05 (inactive)"}
{"residue.sequence": "GGCUUUCCAGAAGACAGAATT against Cyp2s1", "z-score": "0.469 (inactive)"}
{"residue.sequence": "GGAUUUCAAAGUGCUUUGCTT against Kifap3", "z-score": "3.44 (active)"}
{"residue.sequence": "GGAGAUUCAGAAUUACUGATT against Krit1", "z-score": "-0.818 (inactive)"}
{"residue.sequence": "GGACCAUUAAACUAAAUGGTT against Tpte", "z-score": "-0.592 (inactive)"}
{"residue.sequence": "GCAGUUACGUUAGUUAAUATT against Plekha1", "z-score": "1.1 (inactive)"}
{"residue.sequence": "CCAUGGUCUAGCACAGUGGTT against Cpn2", "z-score": "-0.079 (inactive)"}
{"residue.sequence": "GCUAACAGCAUCCUUUUUGTT against Vmn1r50", "z-score": "-0.843 (inactive)"}
{"residue.sequence": "CCUCAUAGCCAGUCUUUUUTT against Pafah2", "z-score": "-0.553 (inactive)"}
{"residue.sequence": "GGCAGUCAACAAAGAAGACTT against Metap1d", "z-score": "-0.711 (inactive)"}
{"residue.sequence": "GGCCUUUUCUUCUUUUUGUTT against Mill1", "z-score": "0.653 (inactive)"}
{"residue.sequence": "GGUGCUUAUAUUGCUUCCCTT against Psmb5", "z-score": "-0.147 (inactive)"}
{"residue.sequence": "GGUGUGAUGCUUGAGUGUCTT against Skint3", "z-score": "2.08 (active)"}
{"residue.sequence": "GGACAAAAACAAACAUGAGTT against Vwa3a", "z-score": "-0.665 (inactive)"}
{"residue.sequence": "CCCGAAAGACAUGUAUUCGTT against Mrps18b", "z-score": "-0.38 (inactive)"}
{"residue.sequence": "GGUUCUGAACCAGCUGGAGTT against Chd3", "z-score": "2.72 (active)"}
{"residue.sequence": "GGAGAAACAGAAGUAUUGATT against Nsa2", "z-score": "-0.559 (inactive)"}
{"residue.sequence": "GGAUUGGCAAGCAGCUAACTT against Dnase2a", "z-score": "-2.08 (active)"}
